Where do the numbers come from? From ChEMBL document CHEMBL5365422.

# measured.target: Polyunsaturated fatty acid 5-lipoxygenase (Homo sapiens) (UniProt P09917)
# Sequence (whole entry): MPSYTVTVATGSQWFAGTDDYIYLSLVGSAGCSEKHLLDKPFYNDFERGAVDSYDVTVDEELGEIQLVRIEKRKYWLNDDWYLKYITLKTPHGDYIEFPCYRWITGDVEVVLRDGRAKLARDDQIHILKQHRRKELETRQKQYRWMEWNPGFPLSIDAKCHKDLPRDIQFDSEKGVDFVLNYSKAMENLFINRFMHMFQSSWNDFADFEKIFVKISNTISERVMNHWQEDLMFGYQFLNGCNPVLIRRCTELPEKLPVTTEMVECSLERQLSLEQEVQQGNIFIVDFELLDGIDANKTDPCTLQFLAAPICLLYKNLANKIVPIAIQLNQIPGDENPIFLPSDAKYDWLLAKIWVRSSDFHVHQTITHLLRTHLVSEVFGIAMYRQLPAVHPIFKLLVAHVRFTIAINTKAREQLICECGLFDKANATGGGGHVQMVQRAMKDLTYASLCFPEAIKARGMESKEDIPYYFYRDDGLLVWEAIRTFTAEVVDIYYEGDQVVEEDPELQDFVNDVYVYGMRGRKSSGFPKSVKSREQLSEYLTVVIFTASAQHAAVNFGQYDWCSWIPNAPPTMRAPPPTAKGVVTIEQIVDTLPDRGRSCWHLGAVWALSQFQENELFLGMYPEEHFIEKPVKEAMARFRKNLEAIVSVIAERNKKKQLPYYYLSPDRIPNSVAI
# assay.info: Binding affinity to 5-LOX (unknown origin)
observation.type: K

C#CCn1cccc1CC1c2ccccc2N(c2c(Cl)cccc2Cl)C1O (stereo not drawn)	0.9 10^8/M
C=CCn1cccc1CC1C(=O)N(c2c(Cl)cccc2Cl)c2ccccc21 (stereo not drawn)	1.4 10^8/M
CCOC(=O)Cn1cc(Cc2c(O)n(-c3c(Cl)cccc3Cl)c3ccccc23)c2ccccc21	4.5 10^8/M
